# Tested on: panel of human cell lines
# test.details: In vitro proliferation assay, Cell Titer Glo, two doubling times, 298 cell lines
# Type: cell-based
# condition.context: Homo sapiens, Rec1, REC-1, haematopoietic and lymphoid tissue; read-out: ABS_IC50_VALUE
# Protocol: Cell Titer Glo measures ATP, thus the IC50s represent both the effect on purine production and cell proliferation, which are related. […] Cells were cultured using recommended culture conditions unless noted otherwise (Supplemental Table 3). Cells were plated, dosed with compound and incubated at 37 °C for approximately 2 doubling times as determined for each cell line. […]
property.measured: IC50

Prompt line: Query IC50 for O=c1[nH]ccc2cc(F)c(NS(=O)(=O)c3ccc(N4CC[C@@H](O)C4)s3)cc12
Response line: > 20 µM

---

# Test system: panel of human cell lines
# test.details: In vitro proliferation assay, Cell Titer Glo, two doubling times, 298 cell lines
# Type: cell-based
# condition.context: Homo sapiens, NCI-H1734, NCI-H1734, lung; read-out: ABS_IC50_VALUE
property.measured: IC50

Prompt line: Enter recorded IC50 with panel of human cell lines for O=c1[nH]ccc2cc(F)c(NS(=O)(=O)c3ccc(N4CC[C@@H](O)C4)s3)cc12 here.
Response line: > 20 µM

---

# Tested on: panel of human cell lines
# test.details: In vitro proliferation assay, Cell Titer Glo, two doubling times, 298 cell lines
# Assay type: cell-based
# condition.context: Homo sapiens, NCI-H1437, NCI-H1437, lung; read-out: ABS_IC50_VALUE
property.measured: pIC50
Would you please state pIC50, meaning minus log10 of the concentration in mol/L, as a bare number?

Prompt line: Retrieve pIC50 on panel of human cell lines; query O=c1[nH]ccc2cc(F)c(NS(=O)(=O)c3ccc(N4CC[C@@H](O)C4)s3)cc12
Response line: 5.86

---

# Tested on: panel of human cell lines
# test.details: In vitro proliferation assay, Cell Titer Glo, two doubling times, 298 cell lines
# Assay type: cell-based
# condition.context: Homo sapiens, HCC1187, HCC1187, breast; read-out: ABS_IC50_VALUE
pIC50: −log10 of the molar value.
property.measured: pIC50

Prompt line: Fill in reported pIC50 for this entry: O=c1[nH]ccc2cc(F)c(NS(=O)(=O)c3ccc(N4CC[C@@H](O)C4)s3)cc12
Response line: < 4.70

---

# test.details: Pharmacokinetic studies
# Format: in vivo
# condition.context: male, CD-1, whole blood (dried blood spots); mouse; intravenous 1 mg/kg; read-out: volume of distribution
property.measured: Vd

Prompt line: Supply Vd value. Item: O=c1[nH]ccc2cc(F)c(NS(=O)(=O)c3ccc(N4CC[C@@H](O)C4)s3)cc12
Response line: 0.779 L/kg

---

# Test system: panel of human cell lines
# test.details: In vitro proliferation assay, Cell Titer Glo, two doubling times, 298 cell lines
# Type: cell-based
# condition.context: Homo sapiens, NCI-H2126, NCI-H2126, lung; read-out: ABS_IC50_VALUE
property.measured: IC50

Prompt line: // fetch IC50 given entry O=c1[nH]ccc2cc(F)c(NS(=O)(=O)c3ccc(N4CC[C@@H](O)C4)s3)cc12
Response line: > 20 µM

---

# Test system: MIA PaCa-2 (pancreas)
# test.details: MS detection of ZMP in cultured cells
# Format: cell-based
# condition.context: Homo sapiens, RPMI media, 16 hours, read-out: ZMP EC50 Regular folate
property.measured: pEC50
Field pEC50 (float): negative decimal logarithm of the concentration in molar.

Prompt line: Fill in pEC50 for record O=c1[nH]ccc2cc(F)c(NS(=O)(=O)c3ccc(N4CC[C@@H](O)C4)s3)cc12 [LSN3213128]
Response line: 5.77

---

# Tested on: panel of human cell lines
# test.details: In vitro proliferation assay, Cell Titer Glo, two doubling times, 298 cell lines
# Assay type: cell-based
# condition.context: Homo sapiens, NCI-H1048, NCI-H1048, lung; read-out: ABS_IC50_VALUE
pIC50: −log10 of the molar value.
property.measured: pIC50

Prompt line: Assign pIC50 to the following record: O=c1[nH]ccc2cc(F)c(NS(=O)(=O)c3ccc(N4CC[C@@H](O)C4)s3)cc12 [LSN3213128]
Response line: < 4.70

---

# Tested on: panel of human cell lines
# test.details: In vitro proliferation assay, Cell Titer Glo, two doubling times, 298 cell lines
# Assay type: cell-based
# condition.context: Homo sapiens, NCI-H520, NCI-H520, lung; read-out: ABS_IC50_VALUE
property.measured: pIC50
Please note pIC50 is a logarithmic value: minus log10 of concentration in mol/L. Answer with that number alone.

Prompt line: Give reported pIC50 value for O=c1[nH]ccc2cc(F)c(NS(=O)(=O)c3ccc(N4CC[C@@H](O)C4)s3)cc12 [LSN3213128]
Response line: 5.02

---

# Tested on: panel of human cell lines
# test.details: In vitro proliferation assay, Cell Titer Glo, two doubling times, 298 cell lines
# Format: cell-based
# condition.context: Homo sapiens, TE-9 (oesophagus, esophageal squamous cell carcinoma); read-out: ABS_IC50_VALUE
property.measured: pIC50
// scale note: pIC50 = -log10(conc_M); give the bare number

Prompt line: Look up and report measured pIC50 for this entry: O=c1[nH]ccc2cc(F)c(NS(=O)(=O)c3ccc(N4CC[C@@H](O)C4)s3)cc12 [LSN3213128]
Response line: 5.93

---

# System: HCT 116 (colon)
# test.details: MS detection of ZMP in cultured cells
# Type: cell-based
# condition.context: Homo sapiens, RPMI media, 16 hours, read-out: ZMP EC50 Regular folate
property.measured: EC50
Please append the unit to your numeric answer.

Prompt line: Query EC50 for O=c1[nH]ccc2cc(F)c(NS(=O)(=O)c3ccc(N4CC[C@@H](O)C4)s3)cc12 [LSN3213128]
Response line: 369 nM

---

# test.details: Pharmacokinetic studies
# Assay type: in vivo
# condition.context: male, CD-1, whole blood (dried blood spots); mouse; oral 10 mg/kg
property.measured: Cmax (µM)
Give the value in µM but do not write µM after it.

Prompt line: Find the measured Cmax of O=c1[nH]ccc2cc(F)c(NS(=O)(=O)c3ccc(N4CC[C@@H](O)C4)s3)cc12 and report it.
Response line: 4.57

---

# Tested on: panel of human cell lines
# test.details: In vitro proliferation assay, Cell Titer Glo, two doubling times, 298 cell lines
# Format: cell-based
# condition.context: Homo sapiens, OE19, OE19, oesophagus; read-out: ABS_IC50_VALUE
# Description: Cell Titer Glo measures ATP, thus the IC50s represent both the effect on purine production and cell proliferation, which are related. […] Cells were cultured using recommended culture conditions unless noted otherwise (Supplemental Table 3). Cells were plated, dosed with compound and incubated at 37 °C for approximately 2 doubling times as determined for each cell line. […]
property.measured: IC50 (µM)
Give the quantity in µM, number only.

Prompt line: Assign IC50 to the following record: O=c1[nH]ccc2cc(F)c(NS(=O)(=O)c3ccc(N4CC[C@@H](O)C4)s3)cc12
Response line: 6.52

---

# Test system: panel of human cell lines
# test.details: In vitro proliferation assay, Cell Titer Glo, two doubling times, 298 cell lines
# Format: cell-based
# condition.context: Homo sapiens, NCI-H2405, NCI-H2405, lung; read-out: ABS_IC50_VALUE
pIC50: −log10 of the molar value.
property.measured: pIC50

Prompt line: Please supply the value of reported pIC50 for the item O=c1[nH]ccc2cc(F)c(NS(=O)(=O)c3ccc(N4CC[C@@H](O)C4)s3)cc12
Response line: < 4.70

---

# Test system: panel of human cell lines
# test.details: In vitro proliferation assay, Cell Titer Glo, two doubling times, 298 cell lines
# Format: cell-based
# condition.context: Homo sapiens, MSTO-211H, pleura; read-out: ABS_IC50_VALUE
# Description: Cell Titer Glo measures ATP, thus the IC50s represent both the effect on purine production and cell proliferation, which are related. […] Cells were cultured using recommended culture conditions unless noted otherwise (Supplemental Table 3). Cells were plated, dosed with compound and incubated at 37 °C for approximately 2 doubling times as determined for each cell line. […]
pIC50: −log10 of the molar value.
property.measured: pIC50

Prompt line: Output reported pIC50 of the molecule O=c1[nH]ccc2cc(F)c(NS(=O)(=O)c3ccc(N4CC[C@@H](O)C4)s3)cc12 [LSN3213128] on panel of human cell lines.
Response line: < 4.70

---

# Tested on: panel of human cell lines
# test.details: In vitro proliferation assay, Cell Titer Glo, two doubling times, 298 cell lines
# Type: cell-based
# condition.context: Homo sapiens, CAKI-1, Caki-1, kidney; read-out: ABS_IC50_VALUE
property.measured: IC50

Prompt line: Look up IC50 of O=c1[nH]ccc2cc(F)c(NS(=O)(=O)c3ccc(N4CC[C@@H](O)C4)s3)cc12 and report it.
Response line: > 20 µM

---

# System: panel of human cell lines
# test.details: In vitro proliferation assay, Cell Titer Glo, two doubling times, 298 cell lines
# Assay type: cell-based
# condition.context: Homo sapiens, HSC-2, HSC-2, upper aerodigestive tract; read-out: ABS_IC50_VALUE
property.measured: pIC50
Formally, pIC50 is defined as -log10 of the concentration c, with c in mol/L.

Prompt line: Please look at this compound and report its pIC50: O=c1[nH]ccc2cc(F)c(NS(=O)(=O)c3ccc(N4CC[C@@H](O)C4)s3)cc12
Response line: 5.89
